- ASSAY SYSTEM: T1, EcZapD H140R (residues 1-247) (E. coli, UniProt P36680 1-247, H140R)
- T1 sequence: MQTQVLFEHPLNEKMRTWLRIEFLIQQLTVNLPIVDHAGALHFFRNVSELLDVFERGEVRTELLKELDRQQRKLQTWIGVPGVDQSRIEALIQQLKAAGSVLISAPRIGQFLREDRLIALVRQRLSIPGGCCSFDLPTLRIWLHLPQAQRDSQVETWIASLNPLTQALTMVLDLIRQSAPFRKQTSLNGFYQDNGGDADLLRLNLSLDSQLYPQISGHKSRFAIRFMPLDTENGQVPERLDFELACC
- MEASUREMENT NOTES: BLI
MEASURED METRIC: Kd (µM)
Write the value in µM as a bare number.

Input line: Data request, read-out Kd, for KEPDYLDIPAFLRKQAD [GST-FtsZ_(367-383)]
Output line: 16
